- Tested on: MS2 coat protein
- TEST_SUMMARY: apparent KD of MS2 coat protein; designed switch direction (-1 OFF switch, 1 ON switch): 1; higher = weaker reporter binding
- STATED_CONDITIONS: input ligand: FMN 200 uM
PROPERTY_LABEL: apparent KD of MS2 coat protein (nM)
Numbers only here, please. The scale is nM.

// worked examples, apparent KD of MS2 coat protein included
INSERT INTO results (residues, measured) VALUES
  ('UGGCUCAGACGAGGAUAUGAUCAUGGCGCUUCGGCGCAUACAUGAGGAUCACCCAUGUAGGGUGAUCAGAAGGCGUCUGAGCCA [SSNG2/8-A2] (Eterna round: R96, puzzle: Same State NG 2)', 55.8),
  ('CGGGUGAUCGUAGGAUAUCUAGGAUAUGAACGAGGAUCACCCGAGCAGCAUCAGCGCAUCAGAGGAGAGAAGGACGAUCAUGCG [pwkr ssNG2 2F5 2FMN.7] (Eterna round: R96, puzzle: Same State NG 2)', 326),
  ('AUAGUUGCCGAAGGAUAUGAUGAGGAUCACCCAUCAGAAGGUUGGCUAUUGGGCUGACAUGAGGAUCACCCAUGUUUCGGUGUU (Eterna round: R96, puzzle: Same State NG 1)', 19.2),
  ('UGAAUAGUGAUAGGAUAUACAUGAGGAAUCCUCGUAGAAGGAUCAUAACAUGAGGAUCACCCAUGUAGCGCUCGAAAGAGCGCA [Mat - Same State NG 1 - JL mod - D55] (Eterna round: R96, puzzle: Same State NG 1)', 244),
  ('UUUAGCGUUACAGGAUAUGGUGAGGAUCACCCACUAGAAGGGUAAACAUGUGCGUCGGACAUGAGGAUCACCCAUGUAGGGCGU (Eterna round: R96, puzzle: Same State NG 1)', 16.5),
  ('GUGCUCGUGUGAGGAUAUGCGGCCGGGUCGGCUGCAGAAGGUACUAUUAUACAUGAGGAUCACCCAUGUCGCUUUUCUCCGGUG [salish99_SSNG1_r04_919] (Eterna round: R96, puzzle: Same State NG 1)', 62.5);

State the recorded apparent KD of MS2 coat protein for this entry: GCCGCGUUUCGCGCCUACAUGAGGAUCACCCAUGUAUGUCGGCAGGAUAUCGUUUGCUUUGCAAACGAGAAGGGCUGUUGUGGC [salish99_SSNG3_R04_011] (Eterna round: R96, puzzle: Same State NG 3)
13.4

State the recorded apparent KD of MS2 coat protein for this entry: AGUAGUUUAACAUGAGGAUCACCCAUGUAUUUUUCUGUAACCUAGGAUAUGGGCGUUGUAUUUAUCCAGAAGGAGGAUCGUUUA [JR_SSNG3_Sub048] (Eterna round: R96, puzzle: Same State NG 3)
30.3

State the recorded apparent KD of MS2 coat protein for this entry: GUUAGGAAUCUAGCAAACAUGAGGAUCACCCAUGUUAGUGGGAAGGAUAUGGUACAGAAACUGUACCAGAAGGUCUUAUUGAUU [Omei SS(NG) 3 AV4] (Eterna round: R96, puzzle: Same State NG 3)
40.2
